assay: amyloid nucleation score (Sup35N fusion, yeast selection) (log enrichment); library NNK1; higher = more nucleation; inactive = no reads after selection;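 note: zero at mode of non-aggregating sequences after 7 days selection at 30°C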
ENDPOINT LABEL: amyloid nucleation score
Numbers only.

# annotated cases, reported amyloid nucleation score shown
YRNGCTFGWWRWRR ... 1.08
SFNVAMCRCDVYL ... 7.03
FASMIFSRASSSSDNIFFRN ... 0.361

For each of the items listed, what is its amyloid nucleation score?
1. LARDRFTYLAASYPFTPSRA
2. LFNMFDQITCIVDSDNYRHA

**Result**
[-0.761, 0.116]

* * *

experiment: amyloid nucleation score (Sup35N fusion, yeast selection) (log enrichment); library NNK1; higher = more nucleation; inactive = no reads after selection
For each entry below, report its amyloid nucleation score value.
Numbers only.

Some sequences with known amyloid nucleation score results, for comparison:
FTSSVIILCIFYWNGLVRIF ... -0.505
RNWCIMFLTYVL ... 3.74
DQIGDYLRFACSDKDYS ... 0.039
DGMVALYVGYATSLVTWAK ... 0.65
GVACTARCMCKFNRHPGVCE ... -0.274
LVELLVWMAGWRCGDFLACR ... 0.867
CWDKRLNSY ... 0.688
RLVESRLCASCVDGG ... -0.166

**Query** Please look at this sequence and report its amyloid nucleation score: "RRYEFKRLGSMSDGVTLRSM"
**Result** -0.759
